parameterMeasured: melting point

compound	testResult
CC(C)(C)NC(=O)N1C(=O)C(C(=O)c2cccs2)c2ccc(Cl)cc21 (stereo unspecified)	160 to 162 °C

Request: Record request: melting point value, item CCOC(=O)NC1=NCC(c2ccc(F)cc2)N1C (stereo unspecified)
Response: 117 to 118 °C

Request: Also, N#Cc1ccc(NC(=O)N[C@@H]2C[C@@H]2c2c(F)cccc2Cl)nc1 (relative stereo) please.
Response: 189 °C

Request: Also, `Cc1cccc(-c2nc(N)sc2-c2ccnc(F)c2)c1` please.
Response: 214 to 218 °C

Request: Also, `CCc1c(N(C(C)=O)c2cc(C)cc(C)c2)[nH]c(=O)[nH]c1=O` please.
Response: 238 to 239 °C

Request: Also, Cc1cc(CCCCCS(=O)c2ccc(C3=NCCO3)cc2)on1 (stereo unspecified) please.
Response: 110 to 111 °C

Reference source: a melting point compilation (Tetko et al.; mined from patent text by program, amines drawn as free bases though some values may be those of a salt)
